Sourced from PubChem BioAssay AID208

System: HT29 intrarenal xenograft, nude mice, tumor weight change
method-notes: NCI In Vivo Anticancer Drug Screen. Data for tumor model HT29;CX-1 Human Adenocarcinoma (MER+) (intrarenal inoculation) in NU/NU BALB/C (nude) mice
condition-description: endpoint: mean tumor weight change; dose: 200.0 mg/kg/injection; schedule: Q01DX010 (sc); vehicle: Klucel (hydroxypropylcellulose) (HPC); higher = larger tumour
Records with an inconclusive call do not appear.
readout-kind: T/C

See these solved cases before continuing.
structure-smiles-string: CCCC(=O)OCc1cc(=O)n(C)c2c3c4c(cc12)c(C)cc(=O)n4CO3
readout-kind: T/C
value: 43 % of control
--
structure-smiles-string: N#CC(C#N)=C/C=C/c1cccc([N+](=O)[O-])c1
readout-kind: T/C
value: 63 % of control
--
structure-smiles-string: Cc1ccc(S(=O)(=O)N/N=C/C(=O)O)cc1
readout-kind: T/C
value: 50 % of control

Per the record, `CN(C)N=Nc1ccc(S(N)(=O)=O)cc1` has T/C of 104 % of control
